The reported numbers originate from patent US11420969B2.

test_target: CYP3A4 (Homo sapiens, UniProt P08684)
Construct: from tissue; host or cells: human liver microsomes
Sequence (P08684 whole entry): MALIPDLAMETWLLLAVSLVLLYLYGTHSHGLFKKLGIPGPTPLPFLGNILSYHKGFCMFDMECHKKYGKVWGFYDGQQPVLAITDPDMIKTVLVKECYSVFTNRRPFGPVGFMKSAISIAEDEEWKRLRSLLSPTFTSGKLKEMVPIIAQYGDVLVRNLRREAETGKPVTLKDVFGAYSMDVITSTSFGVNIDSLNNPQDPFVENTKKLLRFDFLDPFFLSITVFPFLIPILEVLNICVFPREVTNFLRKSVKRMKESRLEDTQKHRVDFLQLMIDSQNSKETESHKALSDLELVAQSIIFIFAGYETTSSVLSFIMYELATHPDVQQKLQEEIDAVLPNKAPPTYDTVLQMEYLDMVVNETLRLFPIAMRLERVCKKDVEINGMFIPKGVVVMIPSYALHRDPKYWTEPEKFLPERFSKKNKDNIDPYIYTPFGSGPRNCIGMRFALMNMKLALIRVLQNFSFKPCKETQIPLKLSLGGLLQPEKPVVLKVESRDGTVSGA
procedure_text: CYP inhibition assay, human liver microsomes, substrate midazolam
Assay type: in vitro ADME
cond: human liver microsomes, 10 min incubation, LC-MS/MS; read-out: CYP Inhibition Activity (IC50/nM) CYP3A4
Listing of recorded IC50 by entry.
Write the answer as a number in nM, unit excluded.

Some compounds with recorded IC50:
Prompt: Query (compound): "CN1CCC2(CCN(c3ccc(C(F)(F)F)cc3NC(=O)c3ccc(C4CCOCC4)o3)CC2)C1=O" ; field requested: IC50
Completion: 2700

Prompt: Query (compound): "O=C(Nc1cc(C(F)(F)F)ccc1N1CCC(O)(CC2CC2)CC1)c1ccc(C2CCOCC2)o1" ; field requested: IC50
Completion: 2650

Prompt: Query (compound): "CC1CCN(c2ccc(C(F)(F)F)cc2NC(=O)c2ccc(-c3ccncc3)o2)CC1" ; field requested: IC50
Completion: 7300

Others:
Prompt: Query (compound): O=C(Nc1cc(C2CC2)ccc1N1CCCC(O)CC1)c1ccc(-c2ccncc2)o1 (racemic) ; field requested: IC50
Completion: 2130

Prompt: Query (compound): "CC1(C(N)=O)CCN(c2ccc(C(F)(F)F)cc2NC(=O)c2ccc(C3CCOCC3)o2)CC1" ; field requested: IC50
Completion: 10300

Prompt: Query (compound): "CC1(O)CCN(c2ccc(C(F)F)cc2NC(=O)c2ccc(C3CCOCC3)o2)CC1" ; field requested: IC50
Completion: 7700

Prompt: Query (compound): "CC1(O)CCN(c2ccc(C(F)(F)F)cc2NC(=O)c2ccc(-c3ccncc3)o2)CC1" ; field requested: IC50
Completion: 4900

====

test_target: CYP2D6 (Homo sapiens, UniProt P10635)
Construct: from tissue; host or cells: human liver microsomes
Sequence (P10635 whole entry): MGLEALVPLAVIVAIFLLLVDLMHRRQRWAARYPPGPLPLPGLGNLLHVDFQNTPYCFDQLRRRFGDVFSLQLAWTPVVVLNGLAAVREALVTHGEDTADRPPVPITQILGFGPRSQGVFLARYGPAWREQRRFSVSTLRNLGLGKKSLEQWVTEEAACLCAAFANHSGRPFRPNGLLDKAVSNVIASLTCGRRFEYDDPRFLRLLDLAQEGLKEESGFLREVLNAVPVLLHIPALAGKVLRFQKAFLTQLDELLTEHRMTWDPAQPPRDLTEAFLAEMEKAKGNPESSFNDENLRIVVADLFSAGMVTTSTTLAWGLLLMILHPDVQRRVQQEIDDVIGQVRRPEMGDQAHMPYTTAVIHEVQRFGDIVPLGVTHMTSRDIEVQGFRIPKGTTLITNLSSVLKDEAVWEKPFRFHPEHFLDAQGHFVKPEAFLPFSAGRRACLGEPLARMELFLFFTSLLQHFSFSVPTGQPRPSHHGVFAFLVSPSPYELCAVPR
procedure_text: biochemical
Format: in vitro ADME
Listing of recorded pIC50 by entry.
Note: pIC50 values are expressed as the negative base-10 logarithm of concentration in M.

Prompt: Notebook: pull reported pIC50 for CYP2D6 (Homo sapiens, UniProt P10635), entry "C[C@]1(O)CCN(c2ccc(C(F)(F)F)cc2NC(=O)c2ccc(-c3ccncc3)o2)C1"
Completion: 8.00

Others:
Prompt: Notebook: pull reported pIC50 for CYP2D6 (Homo sapiens, UniProt P10635), entry "CC1(CN)CCN(c2ccc(C(F)(F)F)cc2NC(=O)c2ccc(-c3ccncc3)o2)CC1"
Completion: 5.89

Prompt: Notebook: pull reported pIC50 for CYP2D6 (Homo sapiens, UniProt P10635), entry CC1(O)CCCN(c2ccc(C(F)(F)F)cc2NC(=O)c2ccc(-c3ccncc3)o2)CC1 (racemic)
Completion: 6.62

Prompt: Notebook: pull reported pIC50 for CYP2D6 (Homo sapiens, UniProt P10635), entry "CC1(O)CCN(c2ccc(C(F)F)cc2NC(=O)c2ccc(C3CCOCC3)o2)CC1"
Completion: 4.59

Prompt: Notebook: pull reported pIC50 for CYP2D6 (Homo sapiens, UniProt P10635), entry "CC1(C(=O)N2CCOCC2)CCN(c2ccc(C(F)(F)F)cc2NC(=O)c2ccc(C3CCOCC3)o2)CC1"
Completion: 4.94

Prompt: Notebook: pull reported pIC50 for CYP2D6 (Homo sapiens, UniProt P10635), entry O=C(Nc1cc(C(F)(F)F)ccc1N1CCN(Cc2cocn2)CC1)c1ccc(-c2ccncc2)o1 [Reference Example 4, reference compound]
Completion: 6.26
